The entries below come with measured pIC50 values attached.
Biological target: CDK2/Cyclin E1 (Homo sapiens, UniProt P24941)
Construct: purchased 14-475
Assay: Caliper Assay (LabChip EZ Reader mobility shift assay), inhibition of CDK2/Cyclin E1 activity
Assay type: biochemical
Details: 2.5 nM CDK2/Cyclin E1(14-475), 100 μM ATP, 30 min preincubation; read-out: Caliper Assay (CDK2/CCNE1): IC50
pIC50: −log10 of the molar value.

Please review the following examples before continuing.
molecule: CC(C)(CO)C(=O)N1CC2(CN(C(=O)c3cncs3)CC2c2nnc(C(F)(F)c3ccc(Cl)c(Cl)c3)o2)C1 (centres unmarked) [I-189]
measured.value: 5.00 to 6.00
//
molecule: CC(C)(c1cc[nH]n1)c1nc(C2CN(C(=O)c3cncs3)CC23CN(C(=O)[C@H]2CC2(C)C)C3)no1 (some centres unmarked) [I-79]
measured.value: 5.00 to 6.00
//
molecule: Cc1cc(O)nn1C(C)c1nc(C2CN(C(=O)c3cncs3)CC23CN(C(=O)[C@H]2CC2(C)C)C3)no1 (some centres unmarked) [I-63]
measured.value: 5.00 to 6.00

[in] Which pIC50 is reported for this molecule? O=C(CC(F)(F)F)N1CC(c2nnc(C(F)(F)c3ccc(Cl)c(Cl)c3)o2)C2(C1)CN(C(=O)CC(F)(F)F)C2 (centres unmarked) [I-203]
[out] < 5.00

[in] Which pIC50 is reported for this molecule? O=C(c1cncs1)N1CC(c2nnc(C(F)(F)c3ccc(Cl)c(Cl)c3)o2)C2(C1)CN(C1CCOC1)C2 (centres unmarked) [I-154]
[out] < 5.00
